Reference for the values: PubChem BioAssay (NCI)

# Test system: COLO 205 colon
# test-description: NCI tumour cell line growth inhibition, 48 h
test-readout: GI50

Solved entries:
Inquiry: Notebook entry, COLO 205 colon assay: GI50 of COC(=O)c1cc2c3ccccc3n3c2c(n1)-c1[nH]c2ccccc2c(=O)c1C3 = ?
Reply text: > 100 µM

Inquiry: Recorded GI50 for O=C1c2ccccc2-c2c1c1ccccc1c(=O)n2CCCNCCn1c2c(c3ccccc3c1=O)C(=O)c1ccccc1-2 with COLO 205 colon, please?
Reply text: 36.2 µM

Inquiry: GET /values?readout=GI50&system=COLO 205 colon&item= C=CCC(N[C@H](CO)c1ccccc1)c1cn(Cc2ccccc2Cl)c(=O)n(Cc2ccccc2Cl)c1=O (some centres undefined)
Reply text: 14.7 µM

Inquiry: Return GI50 measured with COLO 205 colon given this compound: Nc1nc(/C=C\c2ccccc2)nc(N2CCN(c3ccccc3)CC2)n1
Reply text: 16.4 µM

Inquiry: What value of GI50 on COLO 205 colon does CC(C)COc1nc2c(c(=O)n(C)c(=O)n2C)n1C have?
Reply text: > 100 µM

Inquiry: Param readout = GI50; param system = COLO 205 colon; param query = Cc1cc2c(-c3nc4ccccn4c3N)c(O)c(O)cc2c(O)c1-c1c(C)cc2c(-c3nc4ccccn4c3N)c(O)c(O)cc2c1O ; response: value
Reply text: 1.07 µM

Inquiry: Value wanted: GI50 (COLO 205 colon) of entry O=C(NCC1CCCO1)c1ccc(NC2=C(Cl)C(=O)N(Cc3ccccc3)C2=O)cc1 (centres undefined)
Reply text: 23 µM

Inquiry: State its GI50 on COLO 205 colon: Cn1cc(-c2cnn3c(N)c(Br)c(C4CCCNC4)nc23)cn1 (centres undefined)
Reply text: 4.54 µM

Shift focus to the following entry.
Inquiry: Give the reported GI50 for C#CCN(c1ccc(C(=O)N[C@@H](CCC(=O)N[C@H](CCC(=O)O)C(=O)O)C(=O)O)cc1)C1CCc2cc3nc(CO)[nH]c(=O)c3cc21 (some centres undefined) (system: COLO 205 colon).
Reply text: 13.8 µM

###

Reported values of TGI for individual entries
# System: NCI-H522 lung
# test-description: NCI tumour cell line growth inhibition, 48 h

Observe how each entry below is paired with its result.
Inquiry: Recorded TGI for CC(=O)c1ccc2c(c1)CC1(C2)Cc2cc3c(c(C(=O)O)c2C1)CCC3 (stereo unspecified) , please?
Reply text: > 100 µM

Inquiry: Which TGI is listed for Cc1cc(C)c(-c2c(N)cc(Br)cc2Br)c(N)c1 ?
Reply text: 19.1 µM

Inquiry: Look at this molecule and give its reported TGI. O=C(NNC(=S)NC1CCCCC1)C12CC3CC(CC(C3)C1)C2
Reply text: > 100 µM

Inquiry: Which TGI is listed for CC(C)(Cl)C(Br)CCC(Br)(CCl)C(Cl)CBr (stereo unspecified) ?
Reply text: > 10 µM

Inquiry: GET /values?readout=TGI&item= CC(=O)[CH-]C(=O)c1ccccc1.CC(=O)[CH-]C(=O)c1ccccc1.CC(=O)[CH-]C(=O)c1ccccc1.[Nd+3].[OH3+]
Reply text: > 100 µM

Proceed to the following item.
Inquiry: What does the record list as TGI for CCCCc1ccc(Nc2nc(OC)c3ncn(C4CC(O)C(CO)O4)c3n2)cc1 (stereo unspecified) ?
Reply text: 3.83 µM
